test system: NCI/ADR-RES ovarian; assay: NCI-60 one-dose screen, 48 h; details: 10 µM unless noted
The panel holds about 83,000 compounds, 20% with a hit somewhere; the sample as a whole holds those more often. The source made the active and inactive calls. The calls were made as follows: active = growth percent below 10; inactive = the rest.
Result category, one only: 1.0 for active, 0.0 for inactive

Cn1cc(-c2cc3nc(-c4cn(C)c5ncccc45)cc(N)n3n2)c2cc(F)ccc21 :: 0.0
O=C(N/N=C/c1ccc(Cl)o1)c1[nH]c2ccc(Br)cc2c1-c1ccccc1 :: 1.0
CCOc1ccc2[nH]c(=O)c(C(c3nnnn3CC3CCCO3)N3CCN(Cc4ccccc4)CC3)cc2c1 (centres undefined) :: 0.0
CC(C)(C)OC(=O)N1CCC2(CC1)Oc1ccccc1[C@H]1CC(c3ccc(Br)cc3)=NN12 :: 0.0
CC[C@]12C=CCN3CC[C@]4(C(=C(C(=O)OC)C1)Nc1cc(OC)c([C@@H]5[C@H]6O[C@H]6[C@@]6(CC)CC(C(=O)OC)=C7Nc8cc(O)ccc8[C@@]78CCN5[C@@H]68)cc14)[C@@H]32 :: 1.0
COc1cc(/C=C/C(=O)c2cnn(-c3cc(=O)[nH]c4ccc(Cl)cc34)c2C)cc(OC)c1OC :: 1.0
COc1ccc(N=Nc2c(N)nn3c(N)c(C#N)c(-c4ccc(F)cc4)nc23)cc1 :: 0.0
O=C(CSc1nnc(-c2ccc(-c3nc4ccc(Cl)cc4[nH]3)cc2)o1)Nc1ccc(Br)cc1 :: 0.0

Request: Given O=C(Cc1c(-c2cccc([N+](=O)[O-])c2)n(-c2ncnc3c2c(-c2ccccc2)c(-c2ccccc2)n3Cc2ccccc2)[nH]c1=O)c1ccc(Cl)c(Cl)c1 , state the outcome it received in this test.
Response: 0.0

Request: Given Cn1cc(-c2cc(N)n3nc(-c4c[nH]c5ccccc45)cc3n2)c2cc(Br)ccc21 , state the outcome it received in this test.
Response: 1.0

Request: Given COc1cc(NC(=O)CSc2nnc(-c3ccc(-c4nc5ccc(Cl)cc5[nH]4)cc3)o2)cc(OC)c1OC , state the outcome it received in this test.
Response: 0.0

Request: Given CN1C(=O)C2(C(C#N)=C(c3ccc(Cl)cc3)Nc3c2c(-c2ccccc2)nn3-c2ccccc2)c2ccccc21 (centres undefined) , state the outcome it received in this test.
Response: 0.0

Request: Given CCCCC[C@@H]1C/C=C(\C)[C@@H](O)C(C)(C)C(=O)[C@@H](C)/C=C(\C)[C@@H]2C[C@H](O)C[C@](O)(CC(=O)O1)O2 , state the outcome it received in this test.
Response: 0.0

Request: Given CN(C)CCCc1ccc(Nc2cnn(C)c(=O)c2Cl)cc1 , state the outcome it received in this test.
Response: 0.0

Request: Given Cc1cccc(/C=C/c2ccc(NC(=S)NCCCCN(C)C)cc2)c1 , state the outcome it received in this test.
Response: 1.0

Request: Given O=C(Nc1ccc(S(=O)(=O)N2CCCCC2)cc1)C(Cl)Cl , state the outcome it received in this test.
Response: 0.0

Request: Given COc1ccc(NC(=O)N/N=C/c2c[nH]c3ccccc23)cc1 , state the outcome it received in this test.
Response: 0.0

Request: Given CCc1ccc(SC2c3cc(OC)ccc3Oc3nc(N)c(C#N)c(N)c32)cc1 (centres undefined) , state the outcome it received in this test.
Response: 1.0

Request: Given O=C(CSc1nc2c(c(=O)[nH]1)CCCC2)Nc1ccccc1C(=O)O , state the outcome it received in this test.
Response: 0.0

Request: Given Cc1ccc(-c2cc(C(=O)N=Nc3c(O)[nH]c4ccc(F)cc34)c3ccccc3n2)cc1 , state the outcome it received in this test.
Response: 1.0

Request: Given COc1ccc2[nH]c(O)c(N=NC(=O)c3ccc4nc(-c5ccc(Cl)cc5)[nH]c4c3)c2c1 , state the outcome it received in this test.
Response: 0.0

Request: Given CCCN(CCC)S(=O)(=O)c1ccc(C(=O)O)cc1.CCCN(CCC)S(=O)(=O)c1ccc(C(=O)O)cc1.[Cl][Pt+2][Cl].[NH2-].[NH2-] , state the outcome it received in this test.
Response: 0.0

Request: Given O=C(CSc1nc2sc3c(c2c(=O)n1-c1ccc(Cl)cc1)CCCC3)NNC(=O)c1ccc(F)cc1 , state the outcome it received in this test.
Response: 0.0

---

tested on: OVCAR-4 ovarian; experiment: NCI-60 one-dose screen, 48 h; conditions: 10 µM unless noted
Compounds without any hit were thinned out: in the full panel of roughly 83,000, 20% have a hit. Activity calls are given as the source filed them. How the source made its calls: active means growth percent below 10; inactive means the rest.
Result category, one only: active, inactive

CN1CCN(C(=O)CCN(C(=O)Oc2cc3c(c4ccccc24)[C@H](CCl)CN3C(=O)c2cc3cc(OCCCN4CCC4)ccc3[nH]2)[C@H]2CCSSC2)CC1 :: active
Nc1nnc(-c2cncc(Br)c2)c(-c2c[nH]c3ccc(Br)cc23)n1 :: inactive

Request: Given C=CC(=O)Nc1ccc(C(=O)/C=C/c2ccc(N(C)C)cc2)c(O)c1 , state the outcome it received in this test.
Response: inactive

Request: Given CN(C)c1nc(NCCNS(=O)(=O)c2ccc(C(=O)/C=C/c3ccccc3)cc2)nc(N2CCOCC2)n1 , state the outcome it received in this test.
Response: inactive

---

system: HCT-116 colon; assay: NCI-60 one-dose screen, 48 h; conditions: 10 µM unless noted
This is part of a sample that, as a whole, favours compounds with a hit. Of some 83,000 tested, about 20% had one in any assay. Calls of active or inactive are those of the source. The calls were made as follows: active = growth percent below 10; inactive = the rest.
Result category, one only: active, inactive

Reference set, count: 2
O=C(N/N=C/c1ccoc1)c1[nH]c2ccc(Br)cc2c1-c1ccccc1 :: active
O=C(N=Nc1c(O)[nH]c2ccc(Cl)cc12)c1ccc2nc(-c3ccc(Cl)cc3)[nH]c2c1 :: active

Request: Given O=C1NC(=S)/C(=C/c2cn(-c3ccccc3)nc2-c2ccccc2)S1 , state the outcome it received in this test.
Response: inactive

Request: Given COc1ccc2oc(=O)c(-c3csc(N/N=C(\C)c4cc(OC)c(OC)c(OC)c4)n3)cc2c1 , state the outcome it received in this test.
Response: inactive

Request: Given Cc1cn(-c2cc(NC(=O)c3ccc(C)c(-n4cc(-c5cnc6cccnn56)nn4)c3)cc(C(F)(F)F)c2)cn1 , state the outcome it received in this test.
Response: inactive

Request: Given CN(C)c1nc(NCCNS(=O)(=O)c2ccc(C3=Nc4c(N)nc(N)nc4NC(c4ccc(Cl)cc4)C3)cc2)nc(N2CCOCC2)n1 (stereo unspecified) , state the outcome it received in this test.
Response: inactive

Request: Given Cn1cc(-c2cc3nc(-c4cn(C)c5ncccc45)cc(N)n3n2)c2cc(F)ccc21 , state the outcome it received in this test.
Response: inactive

Request: Given COc1ccc(NC(=O)Nc2nc3ccc([N+](=O)[O-])cc3s2)cc1 , state the outcome it received in this test.
Response: inactive

---

tested on: OVCAR-8 ovarian; experiment: NCI-60 one-dose screen, 48 h; details: 10 µM unless noted
The panel holds about 83,000 compounds, 20% with a hit somewhere; the sample as a whole holds those more often. Calls of active or inactive are those of the source. How the source made its calls: active means growth percent below 10; inactive means the rest.
Result category, one only: active, inactive

CC1=C(C)C(=O)C(N2CCSCC2)=CC1=O :: inactive
COc1ccc(-c2cc(C(=O)OCc3ccc(Br)cc3)nn2-c2ccc(S(C)(=O)=O)cc2)cc1OC :: inactive
CC1=C(C(=O)Nc2ccccc2)C(c2cccc(Cl)c2Cl)n2c(nc3ccccc32)N1 (configuration not stated) :: inactive
CCOc1ccccc1[C@H]1C(C(=O)c2ccc(Cl)cc2)C2(N[C@@H]1c1ccccc1)C(=O)Nc1ccc(Cl)cc12 (some centres not stated) :: inactive
CC(C)(C)OC(=O)N1C/C(=C\c2ccc(F)cc2)C(=O)/C(=C/c2ccc(F)cc2)C1 :: active
Cc1ccc(C(=O)Nc2cc(-n3ccnc3C)cc(C(F)(F)F)c2)cc1C#Cc1cnc2cccnn12 :: inactive
CC(C)C[C@H](NC(=O)[C@@H]1CCCCCCCCCCC(=O)N[C@@H](CC(=O)N2CCC[C@@H]2C2CCCC2)C(=O)N1)B(O)O :: active
Clc1ccc(-c2nc3ccc(-c4nnc(SCc5ccccc5)o4)cc3[nH]2)cc1 :: active

Request: Given CCCCCCCCc1cccc(CC(=O)Nc2ccc(C)cc2C(=O)O)c1 , state the outcome it received in this test.
Response: inactive

Request: Given Cc1cc(C)c2[nH]c(=O)c(C(c3nnnn3Cc3ccc4c(c3)OCO4)N3CCN(C)CC3)cc2c1 (configuration not stated) , state the outcome it received in this test.
Response: inactive

Request: Given C[C@H]1[C@@H](CC(=O)N[C@@H](Cc2coc3ccccc23)B(O)O)O[C@@H]2OC3(C)CC[C@H]4[C@H](C)CC[C@@H]1[C@@]24O3 , state the outcome it received in this test.
Response: inactive

Request: Given CN1CCN(c2ccc3c4c(cccc24)C(=O)N(c2cccc(-c4nn(-c5ccccc5)cc4-c4nc5ccccc5s4)c2)C3=O)CC1 , state the outcome it received in this test.
Response: inactive
